Tested on: Plasmodium falciparum parasites (3D7 strain)
protocol: Coenzyme A rescue assay (imaging-based growth inhibition, with or without 0.8 mM CoA)
Type: cell-based
condition-details: Plasmodium falciparum, 3D7, 72 h, no CoA (solvent, non-rescue), 72 h; read-out: IC50 [µM], Pf3D7 + solvent
measurement-kind: IC50 (µM)
Hi! Could you send only the number? It should be in µM, unit omitted.

Dear colleague, please send me the reported IC50 for c1coc(-c2nc(Sc3ncnc4sccc34)n[nH]2)c1 when you can.
10.5

Dear colleague, please send me the reported IC50 for Nc1nnc(Sc2ncnc3sccc23)s1 when you can.
0.096

Dear colleague, please send me the reported IC50 for CC(C)(CO)C(O)C(=O)NCCCO (stereo not drawn) [Pantoth, panthenol, reference compound] when you can.
752

Dear colleague, please send me the reported IC50 for c1csc(Sc2ncnc3sccc23)n1 when you can.
0.039

Dear colleague, please send me the reported IC50 for c1coc(-c2nnc(Sc3ncnc4sccc34)o2)c1 when you can.
0.283

Dear colleague, please send me the reported IC50 for Cc1csc(Sc2ncnc3sccc23)n1 [Amb180780, reference compound] when you can.
0.037

Dear colleague, please send me the reported IC50 for Cn1ccnc1Sc1ncnc2sccc12 when you can.
1.3

Dear colleague, please send me the reported IC50 for Cn1cnnc1Sc1ncnc2sccc12 when you can.
6.4

Dear colleague, please send me the reported IC50 for c1coc(Sc2ncnc3sccc23)n1 when you can.
0.0747

---

Tested on: Plasmodium falciparum parasites (3D7 strain)
protocol: Coenzyme A rescue assay (imaging-based growth inhibition, with or without 0.8 mM CoA)
Format: cell-based
condition-details: Plasmodium falciparum, 3D7, 72 h, no CoA (solvent, non-rescue), 72 h; read-out: IC50 [µM], Pf3D7 + solvent
measurement-kind: IC50 (µM)
Hi! Could you send only the number? It should be in µM, unit omitted.

molecule | IC50 / µM
C[C@@H]1CC[C@H]2[C@@H](C)C(=O)O[C@@H]3O[C@@]4(C)CC[C@@H]1[C@]32OO4 [Artemis, artemisinin, reference compound] | 0.00337
c1ccc2[nH]c(Sc3ncnc4sccc34)nc2c1 | 0.0734

Dear colleague, please send me the reported IC50 for c1cnc2[nH]c(Sc3ncnc4sccc34)nc2c1 when you can.
0.149
